# pEC50 listing for each entry below
# Tested on: HIV-1 (IIIB strain)
# Assay comment: Anti-HIV cytoprotection assay (XTT), HIV-1 IIIB in CEM-SS cells
# Format: cell-based
# Recorded conditions: Human immunodeficiency virus 1, IIIB, CEM-SS, CEM-SS cell line; read-out: Inhibitory activity (EC50) against HIV-1 (IIIB strain)
# Text: a) Inhibitory Activity of the Lymphocytropic Virus Strain HIV-1 (IIIB) in the CEM-SS Cell Line. The evaluation was done by ImQuest BioSciences, Inc. (Frederick, Md., USA). […] A lymphocytropic HIV-1 IIIB strain [Popovic, M. et al. Detection, isolation, and continuous production of cytopathic retroviruses (HTLV-III) from patients with AIDS and pre-AIDS. […] 1984, 224 (4648), 497-500] was chosen for a virus to be analyzed. […]
pEC50: −log10 of the molar value.

Worked set:
INSERT INTO measurements (cpd_smiles, assay_system, measured_result) VALUES
  ('C[C@H]1CO[C@@H]2Cn3cc(C(=O)NCc4ccc5c(c4)OCO5)c(=O)c(O)c3C(=O)N12', 'HIV-1 (IIIB strain)', '8.00 to 8.70'),
  ('C[C@H]1CO[C@@H]2Cn3cc(C(=O)NCc4ccc5ccccc5n4)c(=O)c(O)c3C(=O)N12', 'HIV-1 (IIIB strain)', '8.00 to 8.70'),
  ('C[C@H]1CO[C@@H]2Cn3cc(C(=O)NCc4nc5cc(Cl)ccc5o4)c(=O)c(O)c3C(=O)N12', 'HIV-1 (IIIB strain)', '< 7.52');

Moving on to another molecule below.
The molecule listed as C[C@H]1CO[C@@H]2Cn3cc(C(=O)NCc4cccs4)c(=O)c(O)c3C(=O)N12 shows pEC50 equal to 8.84

----------
# Assay comment: Pharmacokinetics in rat plasma, IV and oral
# Format: in vivo, male Sprague-Dawley rats
# Recorded conditions: male, Sprague-Dawley; rat plasma, IV 1 mg/kg
Experimental endpoint: MRT last (h)
Give just the number in h; leave the unit off.

The recorded MRT last for entry C[C@H]1CO[C@@H]2Cn3cc(C(=O)NCc4ccc(F)cc4F)c(=O)c(O)c3C(=O)N12 [CAB, Cabotegravir, reference compound] equals 9.19

----------
# System: HIV-1 (IIIB strain)
# Assay comment: Anti-HIV cytoprotection assay (XTT), HIV-1 IIIB in CEM-SS cells
# Format: cell-based
# Recorded conditions: Human immunodeficiency virus 1, IIIB, CEM-SS, CEM-SS cell line; read-out: Inhibitory activity (EC50) against HIV-1 (IIIB strain)
Reported EC50 by item:

Sample records with EC50:
INSERT INTO measurements (cpd_smiles, measured_result) VALUES
  ('C[C@H]1CO[C@@H]2Cn3cc(C(=O)NCc4nccc5ccccc45)c(=O)c(O)c3C(=O)N12', '2 to 10 nM'),
  ('C[C@H]1CO[C@@H]2Cn3cc(C(=O)NCc4cccc5ncccc45)c(=O)c(O)c3C(=O)N12', '~10 nM'),
  ('Cc1nccc(CNC(=O)c2cn3c(c(O)c2=O)C(=O)N2[C@@H](C)CO[C@@H]2C3)n1', '10 to 30 nM');

GET /value?item= C[C@H]1CO[C@@H]2Cn3cc(C(=O)NCc4cn5cccnc5n4)c(=O)c(O)c3C(=O)N12 &field=EC50 returns > 30 nM
